Measured log10 of Ki by item
- target.of.assay: human Orexin type 2 receptors (Homo sapiens (Human))
- experiment: Scintillation Proximity Assay (SPA) binding assay, [3H]EMPA displacement, HEK-hOX2 membranes
- stated.conditions: Table 1, [3H]EMPA 2 nM, read-out: OX2 pKi (SPA binding) (converted)
Quick note: numbers are log10 of Ki, with nM as the unit.

Answered examples (2):
* Cc1ccc(-c2ncccn2)c(C(=O)N2C3CC(C3)[C@@H](C)[C@@H]2COc2ccc(F)cc2)n1 (single isomer, unassigned) [Example 93] | 2.61
* Cc1ccc(-n2nccn2)c(C(=O)N2C3CC(C3)[C@H](C)C2COc2ccc(F)cc2)n1 (single isomer, unassigned) [Example 105] | 3.12

For Cc1ccc(-c2nccs2)c(C(=O)N2C3CC(C3)[C@H](C)C2COc2ccc(F)cc2)n1 (single isomer, unassigned) [Example 108] , what is its reported log10 of Ki?
2.61

Same for Cc1nc(C(=O)N2C3CC(C3)[C@@H](C)[C@@H]2COc2cc3ccccc3cn2)c(-c2ccccc2)s1 (single isomer, unassigned) [Example 86]
3.11

Now this one: Cc1nc(C(=O)N2C3CC(C3)[C@H](C)[C@@H]2COc2cc3ccccc3cn2)c(-c2ccccc2)s1 (single isomer, unassigned) [Example 89]
3.00

Next record, please: Cc1nc(C(=O)N2C3CC(C3)[C@@H](C)[C@@H]2COc2cc3ccccc3cn2)c(-c2ccccc2)s1 (single isomer, unassigned) [Example 88]
2.44

Next record, please: Cc1ccc(-c2ncccn2)c(C(=O)N2C3CC(C3)[C@H](C)[C@@H]2COc2ccc(F)cc2)n1 (single isomer, unassigned) [Example 91]
1.55

----------
- target.of.assay: human Orexin type 2 receptors (Homo sapiens (Human), UniProt O43614)
- Sequence (O43614 whole entry): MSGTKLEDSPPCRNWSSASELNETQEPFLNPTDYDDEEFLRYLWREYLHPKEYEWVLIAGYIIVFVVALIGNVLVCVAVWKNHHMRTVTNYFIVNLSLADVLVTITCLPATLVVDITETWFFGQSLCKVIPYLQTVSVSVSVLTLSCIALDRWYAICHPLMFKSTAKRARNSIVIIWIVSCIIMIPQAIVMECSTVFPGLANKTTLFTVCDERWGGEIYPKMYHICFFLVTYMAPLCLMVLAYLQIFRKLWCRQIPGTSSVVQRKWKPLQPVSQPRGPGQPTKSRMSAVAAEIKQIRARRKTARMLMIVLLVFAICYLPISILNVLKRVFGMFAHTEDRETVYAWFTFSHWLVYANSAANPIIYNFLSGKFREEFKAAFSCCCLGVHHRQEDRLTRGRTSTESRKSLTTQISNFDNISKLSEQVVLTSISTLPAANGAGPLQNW
- experiment: Scintillation Proximity Assay (SPA) binding assay, [3H]EMPA displacement, HEK-hOX2 membranes
- stated.conditions: Table 2, [3H]EMPA 2 nM
- Procedure: Scintillation Proximity Assay (SPA) Binding Assays […] The binding was performed in a final volume of 200 μl. […] Nonspecific binding was measured in the presence of 1 μM Almorexant. Assay plates were then incubated at room temperature for 3 h before being counted in a Microbeta scintillation counter (PerkinElmer). Data were analysed by non-linear regression analysis using XLfit Software.
OX2 pKi (SPA binding) under 5 gets met, anything at or over 5 gets not met.

Field: example entries. Status: answers known.
• C[C@@H]1C2CC(C2)N(C(=O)c2cc(C#N)ccc2-n2nccn2)C1COc1ccc(F)cc1 (mixture of isomers) = not met
• Cc1cccc(-c2sc(C)nc2C(=O)N2C3CC(C3)[C@@H](C)C2COc2ccc(F)cc2)n1 (mixture of isomers) = not met
• Cc1ccc(-n2nccn2)c(C(=O)N2C3CC(C3)[C@@H](C)C2CNc2nc3cccnc3s2)n1 (single isomer, unassigned) [Example 186] = not met
• Cc1ccc(-n2nccn2)c(C(=O)N2C3CC(C3)[C@H](C)C2CNc2nc3ccccc3s2)n1 (stereo partly drawn) = not met

Now consider the entry below.
Consider C[C@@H]1C2CC(C2)N(C(=O)c2nn(C)cc2-c2ncccn2)C1CNc1ccc(C(F)(F)F)cn1 (mixture of isomers) [Example 213] . Does its OX2 pKi (SPA binding) lie strictly below 5?
met

----------
- target.of.assay: UniProtKB O43614
- experiment: Intracellular calcium measurement (FLIPR), antagonism of Orexin-A at EC80 in CHO-hOX2 cells
Each entry below carries its recorded Ki.

Please review the entries below; each comes with its answer.
• Cc1ccc(-c2ncccn2)c(C(=O)N2C3CC(C3)[C@@H](C)[C@H]2COc2ccc(F)cc2)c1 (single isomer, unassigned) [Example 71] = 89.1 nM
• Cc1ccc(-c2ncccn2)c(C(=O)N2C3CC(C3)C(C)C2COc2ccc(F)cc2)c1 (mixture of isomers) [Example 69] = 295 nM
• Cc1ccc(-c2ncccn2)c(C(=O)N2C(COc3ccc(Cl)cc3)CC3CC2C3)c1 (stereo not shown) [Example 19] = 977 nM

We now examine a further compound.
Need Ki of Cc1nc(C(=O)N2C3CC(C3)C(C)C2COc2ccc(F)cn2)c(-c2ccccc2)s1 (mixture of isomers) [Example 77] , thanks.
> 1000 nM

----------
- target.of.assay: human Orexin type 2 receptors (Homo sapiens (Human), UniProt O43614)
- experiment: Scintillation Proximity Assay (SPA) binding assay, [3H]EMPA displacement, HEK-hOX2 membranes
- stated.conditions: Table 2, [3H]EMPA 2 nM
// boundary case: OX2 pKi (SPA binding) equal to 6 maps to 0 (no); strictly smaller maps to 1 (yes)

Say whether its OX2 pKi (SPA binding) is strictly beneath 6. Entry: Cc1ccc(-n2nccn2)c(C(=O)N2C3CC(C3)[C@@H](C)C2CNc2ccc(Cl)cn2)n1 (mixture of isomers)
1 (yes)

# iterate: C[C@@H]1C2CC(C2)N(C(=O)c2cc(Cl)ccc2-n2nccn2)C1CNc1nc2ccc(F)cc2s1 (mixture of isomers) [Example 171]
0 (no)

Let us now turn to Cc1nc(C(=O)N2C3CC(C3)[C@@H](C)C2COc2ccc(F)cc2)c(-n2cccn2)s1 (mixture of isomers)
0 (no)

Similarly, C[C@@H]1C2CC(C2)N(C(=O)c2cc(C#N)ccc2-n2nccn2)C1CNc1cnc2cc(F)ccc2n1 (mixture of isomers) ?
0 (no)

Same question, C[C@@H]1C2CC(C2)N(C(=O)c2cc(Cl)ccc2-n2nccn2)C1CNc1cnc2cc(F)ccc2n1 (mixture of isomers) [Example 207] this time
0 (no)

Check Cc1cn(-c2ccc(C)nc2C(=O)N2C3CC(C3)[C@@H](C)C2COc2ccc(F)cc2)nn1 (mixture of isomers) too.
1 (yes)

Moving on to the next compound: Cc1ccc(-n2cccn2)c(C(=O)N2C3CC(C3)[C@H](C)C2COc2ccc(F)cc2)n1 (mixture of isomers)
1 (yes)

Cool, now Cc1nc(C(=O)N2C3CC(C3)[C@@H](C)C2COc2ccc(F)cc2)c(-n2nccn2)s1 (stereo partly shown)
0 (no)

Now the same for CCOc1ccc(C)nc1C(=O)N1C2CC(C2)[C@@H](C)C1CNc1nc2ccc(F)cc2s1 (mixture of isomers)
0 (no)

----------
- target.of.assay: human Orexin type 2 receptors (Homo sapiens (Human))
- experiment: Scintillation Proximity Assay (SPA) binding assay, [3H]EMPA displacement, HEK-hOX2 membranes
- stated.conditions: Table 2, [3H]EMPA 2 nM
Listed below: OX2 pKi (SPA binding) values for each entry.
Simply state the number, no unit and no words.

- Cc1nc(C(=O)N2C3CC(C3)[C@H](C)C2COc2ccc(F)cc2)c(-c2ncccn2)s1 (single isomer, unassigned) [Example 115]: 5.93

Entry under review: Cc1ccc(-n2nccn2)c(C(=O)N2C3CC(C3)[C@H](C)C2CNc2ncc3ccccc3n2)n1 (stereo partly shown) . Reported OX2 pKi (SPA binding)?
5.72

Okay, and C[C@@H]1C2CC(C2)N(C(=O)c2cc(C#N)ccc2-n2nccn2)C1CNc1nc2ccc(F)cc2s1 (single isomer, unassigned) [Example 177] ?
6.46

// same read-out, input: C[C@@H]1C2CC(C2)N(C(=O)c2nn(C)cc2-c2ccccc2)C1CNc1ccc(C(F)(F)F)cn1 (single isomer, unassigned) [Example 211]
6.25

Please answer likewise for C[C@@H]1C2CC(C2)N(C(=O)c2cc(F)ccc2-n2nccn2)C1CNc1cnc2ccccc2n1 (mixture of isomers) [Example 187]
5.63

Check Cc1nc(C(=O)N2C3CC(C3)[C@@H](C)C2CNc2nc3ccc(F)cc3s2)c(-c2ncccn2)s1 (mixture of isomers) [Example 162] too.
5.59

Then this compound: Cc1ccc(-n2nccn2)c(C(=O)N2C3CC(C3)[C@@H](C)C2CNc2nc3ccc(F)cc3s2)n1 (single isomer, unassigned) [Example 154]
6.23

Another compound to look at: Cc1ccc(-n2nccn2)c(C(=O)N2C3CC(C3)[C@@H](C)C2CNc2cnc(C(F)(F)F)cn2)c1 (single isomer, unassigned) [Example 256]
5.18

----------
Each entry below lists one item and its recorded OX2 pKi (SPA binding) value.
- target.of.assay: human Orexin type 2 receptors (Homo sapiens (Human), UniProt O43614)
- experiment: Scintillation Proximity Assay (SPA) binding assay, [3H]EMPA displacement, HEK-hOX2 membranes
- stated.conditions: Table 2, [3H]EMPA 2 nM
- Experimental: Scintillation Proximity Assay (SPA) Binding Assays […] The binding was performed in a final volume of 200 μl. […] Nonspecific binding was measured in the presence of 1 μM Almorexant. Assay plates were then incubated at room temperature for 3 h before being counted in a Microbeta scintillation counter (PerkinElmer). Data were analysed by non-linear regression analysis using XLfit Software.

• Cc1cnc(-n2nccn2)c(C(=O)N2C3CC(C3)[C@@H](C)C2COc2ccc(F)cc2)n1 (mixture of isomers) [Example 145] = 5.62
• C[C@@H]1C2CC(C2)N(C(=O)c2cc(Cl)ccc2-n2nccn2)C1CNc1ccc(C(F)(F)F)nn1 (stereo partly drawn) [Example 247] = 4.88
• Cc1ccc(-n2nccn2)c(C(=O)N2C3CC(C3)[C@@H](C)C2CNc2cnc(C(F)(F)F)cn2)n1 (single isomer, unassigned) [Example 167] = 5.13

I am curious: what OX2 pKi (SPA binding) value has been reported for Cc1ccc(-n2ncc(C)n2)c(C(=O)N2C3CC(C3)[C@@H](C)C2COc2ccc(F)cc2)n1 (mixture of isomers) [Example 144] ?
6.83

Please do the same for Cc1ccc(-n2nccn2)c(C(=O)N2C3CC(C3)[C@@H](C)C2COc2ccc(F)cn2)n1 (mixture of isomers) [Example 130] as well.
6.08

Try Cc1ccc(-n2nccn2)c(C(=O)N2C3CC(C3)[C@@H](C)C2CNc2nc3ccc(F)cc3s2)n1 (mixture of isomers) [Example 152] next.
6.1
